# systemName: T1, HLA-A*02:01 (human)
# T1 construct: MHC monomers captured on streptavidin plates; the UV-sensitive peptide is cleaved and exchanged with the test peptide; also called peptide-receptive MHC molecules; MHC class I
# protocol: UV ligand-exchange ELISA (anti-b2m); ++ = exchange yield >=20%
attributeMeasured: peptide exchange yield

Below, 2 binders whose answers are already recorded.
binder=LLFPSDVQTL attributemeasured="peptide exchange yield" result="20 to 50%"
binder=ALLSSVAEA attributemeasured="peptide exchange yield" result="20 to 50%"

Moving on to the next binder.
Request: Quick one: peptide exchange yield of KLLEEVQLL ?
Result: 20 to 50%

Data credit: patent US20160279215A1
